Test Target: HNF4alpha2 (COS-7 nuclear extract) (Homo sapiens, UniProt P41235 1-474)
Sequence: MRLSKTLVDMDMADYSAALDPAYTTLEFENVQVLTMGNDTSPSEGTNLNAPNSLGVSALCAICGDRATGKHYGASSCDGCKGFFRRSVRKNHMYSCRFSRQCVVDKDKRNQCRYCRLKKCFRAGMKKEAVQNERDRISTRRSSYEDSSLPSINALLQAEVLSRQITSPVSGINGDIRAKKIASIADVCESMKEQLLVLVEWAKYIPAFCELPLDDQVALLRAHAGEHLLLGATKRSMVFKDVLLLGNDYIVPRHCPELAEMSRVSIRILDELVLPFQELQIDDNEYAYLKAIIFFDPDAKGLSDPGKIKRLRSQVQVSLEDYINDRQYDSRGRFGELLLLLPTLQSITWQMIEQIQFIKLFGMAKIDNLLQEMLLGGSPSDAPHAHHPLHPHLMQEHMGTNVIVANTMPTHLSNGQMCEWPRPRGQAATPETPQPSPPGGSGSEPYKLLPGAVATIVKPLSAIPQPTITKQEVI
Assay Details: protein-binding microarray; COS-7 nuclear extract on double-stranded Agilent 4x180k PBM; binding buffer, salt, pH and temperature not given in the material; high values mean tight binding
Condition Summary: chain copies: 2; label: 3' end of strand 1 on the slide; dsDNA, one strand shown
The full ranking holds about 18,000 sequences; the median of “log2 normalized intensity” is about 0.39, and the highest 2% start at about 6.6. The full list was thinned out, with the highest values kept by preference.
Where binding signal equals or exceeds 3 log2 normalized intensity, the correct label is true (1); where it does not, the label is false (0).

INSERT INTO measurements (sequence_data, class_name) VALUES
  ('GGAAACTCCATTTCCTTCTAGCTCCCCAATGCCTAGGGAGATTAGAGTATCGGTCGA', 'true (1)'),
  ('AAGGTCAGGATCTCAGCCGCGCGGCTTCAGGCCTAGGGAGATTAGAGTATCGGTCGA', 'false (0)'),
  ('TCCTGATCCCTGAGGTCGGGGCCTGGTCTGGCCTAGGGAGATTAGAGTATCGGTCGA', 'false (0)'),
  ('TTGGCAGATTAGATATATCTGTACTCAAACGCCTAGGGAGATTAGAGTATCGGTCGA', 'false (0)');

Now consider the entry below.
Check the entry TACCAAGGCTCAGAGGTCAAGTCACTGCTCGCCTAGGGAGATTAGAGTATCGGTCGA : does binding signal equal or exceed 3 log2 normalized intensity?
false (0)

###

# reported binding signal; entries follow
Test Target: HNF4alpha2 (COS-7 nuclear extract) (Homo sapiens, UniProt P41235 1-474)
Sequence: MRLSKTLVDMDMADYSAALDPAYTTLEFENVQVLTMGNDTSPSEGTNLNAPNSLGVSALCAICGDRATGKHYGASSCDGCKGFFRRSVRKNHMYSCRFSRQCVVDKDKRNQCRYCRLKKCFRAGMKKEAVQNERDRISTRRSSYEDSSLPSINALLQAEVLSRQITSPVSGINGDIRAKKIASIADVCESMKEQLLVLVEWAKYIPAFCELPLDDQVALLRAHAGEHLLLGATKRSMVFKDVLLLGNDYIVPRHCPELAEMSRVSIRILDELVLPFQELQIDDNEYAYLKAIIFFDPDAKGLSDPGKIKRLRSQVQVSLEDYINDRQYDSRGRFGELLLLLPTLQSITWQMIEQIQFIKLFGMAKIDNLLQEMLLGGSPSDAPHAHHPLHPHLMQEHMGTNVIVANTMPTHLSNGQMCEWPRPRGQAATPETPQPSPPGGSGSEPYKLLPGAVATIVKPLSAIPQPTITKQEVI
Assay Details: protein-binding microarray; COS-7 nuclear extract on double-stranded Agilent 4x180k PBM; binding buffer, salt, pH and temperature not given in the material; high values mean tight binding
Condition Summary: chain copies: 2; label: 3' end of strand 1 on the slide; dsDNA, one strand shown
In all, about 18,000 sequences were measured (“log2 normalized intensity”: median about 0.39, highest 2% from about 6.6 on). The entries come from a sample that favours the highest values as a whole.
Reply with just the number (in log2 normalized intensity).

INSERT INTO measurements (sequence_data, measured_number) VALUES
  ('GAGCTCAGTCACAGCAGTGGACTTTGACCTGCCTAGGGAGATTAGAGTATCGGTCGA', 11.2),
  ('ACAGATGTAGACATTGGAATGCGGGCTCCAGCCTAGGGAGATTAGAGTATCGGTCGA', -0.394),
  ('ACAGCAGTGGACTTTGACCTTGGCACTGAAGCCTAGGGAGATTAGAGTATCGGTCGA', 9.07),
  ('ACTTTGACCTTGGCACTGAAGAATGTCTAAGCCTAGGGAGATTAGAGTATCGGTCGA', 1.8),
  ('GGAGAGCTAGTAAGGAGCTGAGTCATAGTGGCCTAGGGAGATTAGAGTATCGGTCGA', -0.825);

Identify the reported binding signal for the following entry. TAAGGAGCTGAGTCATAGTGGACTTTGCCTGCCTAGGGAGATTAGAGTATCGGTCGA
6.9

Provide binding signal value for the following sequence: AAGAAGAGCTCAGTCACAGCAGTGGACTTTGCCTAGGGAGATTAGAGTATCGGTCGA
6.61

Answer with the recorded binding signal for the sequence listed here: GGGGCAGAGTGAGCAGCACTTTTGGAGTTTGCCTAGGGAGATTAGAGTATCGGTCGA
1.51

Retrieve binding signal measured for AGAGTGAGCAGCACTTTTGGAGTTTGACCTGCCTAGGGAGATTAGAGTATCGGTCGA and print it.
7.73

Hey, just so you know, these numbers are from paper PMC10726135.
